- run-parameters: in acetone, 318.15 K
value-type: solubility (mole fraction)
# output: bare number, no unit

# query: solubility (mole fraction) of entry `CC(C)[C@H](C)[C@@H](O)[C@H](O)[C@@H](C)[C@H]1CC[C@H]2[C@@H]3COC(=O)[C@H]4C[C@H](O)[C@H](O)C[C@]4(C)[C@H]3CC[C@]12C`
0.267

---

- run-parameters: in methanol, 293.15 K
value-type: solubility (mole fraction)
# output: bare number, no unit

# query: solubility (mole fraction) of entry `CC(C)[C@H](C)[C@@H](O)[C@H](O)[C@@H](C)[C@H]1CC[C@H]2[C@@H]3COC(=O)[C@H]4C[C@H](O)[C@H](O)C[C@]4(C)[C@H]3CC[C@]12C`
0.0511

---

- run-parameters: in methanol, 308.15 K
value-type: solubility (mole fraction)
# output: bare number, no unit

# query: solubility (mole fraction) of entry `CC(C)[C@H](C)[C@@H](O)[C@H](O)[C@@H](C)[C@H]1CC[C@H]2[C@@H]3COC(=O)[C@H]4C[C@H](O)[C@H](O)C[C@]4(C)[C@H]3CC[C@]12C`
0.077

---

- run-parameters: in chloroform, 298.15 K
value-type: solubility (mole fraction)
# output: bare number, no unit

# query: solubility (mole fraction) of entry `CC(C)[C@H](C)[C@@H](O)[C@H](O)[C@@H](C)[C@H]1CC[C@H]2[C@@H]3COC(=O)[C@H]4C[C@H](O)[C@H](O)C[C@]4(C)[C@H]3CC[C@]12C`
0.00142

---

- run-parameters: in n-heptane, 293.15 K
value-type: solubility (mole fraction)
# output: bare number, no unit

# query: solubility (mole fraction) of entry `CC(C)[C@H](C)[C@@H](O)[C@H](O)[C@@H](C)[C@H]1CC[C@H]2[C@@H]3COC(=O)[C@H]4C[C@H](O)[C@H](O)C[C@]4(C)[C@H]3CC[C@]12C`
0.00018

---

- run-parameters: in acetonitrile, 308.15 K
value-type: solubility (mole fraction)
# output: bare number, no unit

# query: solubility (mole fraction) of entry `CC(C)[C@H](C)[C@@H](O)[C@H](O)[C@@H](C)[C@H]1CC[C@H]2[C@@H]3COC(=O)[C@H]4C[C@H](O)[C@H](O)C[C@]4(C)[C@H]3CC[C@]12C`
0.00133

---

- run-parameters: in chloroform, 308.15 K
value-type: solubility (mole fraction)
# output: bare number, no unit

# query: solubility (mole fraction) of entry `CC(C)[C@H](C)[C@@H](O)[C@H](O)[C@@H](C)[C@H]1CC[C@H]2[C@@H]3COC(=O)[C@H]4C[C@H](O)[C@H](O)C[C@]4(C)[C@H]3CC[C@]12C`
0.00181

---

- run-parameters: in isopropanol, 308.15 K
value-type: solubility (mole fraction)
# output: bare number, no unit

# query: solubility (mole fraction) of entry `CC(C)[C@H](C)[C@@H](O)[C@H](O)[C@@H](C)[C@H]1CC[C@H]2[C@@H]3COC(=O)[C@H]4C[C@H](O)[C@H](O)C[C@]4(C)[C@H]3CC[C@]12C`
0.0007

---

- run-parameters: in acetone, 323.15 K
value-type: solubility (mole fraction)
# output: bare number, no unit

# query: solubility (mole fraction) of entry `CC(C)[C@H](C)[C@@H](O)[C@H](O)[C@@H](C)[C@H]1CC[C@H]2[C@@H]3COC(=O)[C@H]4C[C@H](O)[C@H](O)C[C@]4(C)[C@H]3CC[C@]12C`
0.296
